target: T1, CD47 on the surface of CD47+ cells (human, UniProt Q08722 19-323); experiment: flow cytometry, competition with SIRPA-mIgG2a on CD47+ tumor cells; IC50 as grade, legend the 8th table, row 26
T1 construct: whole, on cells; also called CD47+ cell lines; CD47 on Raji cells, HCT-15 cells, human red blood cells (RBCs), human platelets
PROPERTY NAME: IC50

The following binders have reported results that may help.
[
  {
    "BINDER": "R.18B9 (antibody, human IgG1, kappa, V domains shown, Chimeric: rabbit variable domains, human IgG1 and human kappa constant regions; also called Chimeric antibody 18B9) VH: QSLEESGGDLVKPGASLTLTCKASGFSFNSGYMCWVRQAPGKGLEWIACIYAGSSGKTYYASWATGRFTISKTSSTTVTLQMTSLTVADTATYFCARDDGGTYYTDYLYLWGPGTLVTVSS VL: DVVMTQTPASVEAAVGGTVTIKCQASEGISSYLSWYQQKPGQPPKLLIYKASTLTSGVPSRFKGSGSGTDFTLTISDLESADAATYYCQCTYGSSGSSGYGAAFGGGTEVVVKR",
    "ASSAY VALUE": "100 to 1000 pM"
  },
  {
    "BINDER": "R.20H1 (antibody, human IgG1, kappa, V domains shown, Chimeric: rabbit variable domains, human IgG1 and human kappa constant regions) VH: QEQLVESGGGLVKPGASLTLTCKASGFSFSSGYYMCWVRQAPGKGLEWIGCIYVRSDSTYYASWAKGRFTISKASSTTVTLQMTSLTAADTATYFCARGVTGDSYRFNFWGPGTLVTVSS VL: DVVMTQTPASVEAAVGGTVTIKCQASQSISNELSWYQQKSGQPPKLLIYRASTLESGVPSRFKGSGSGTEFTLTISDLESADAATYYCQSTYYGTSYGNAFGGGTEVVVKR",
    "ASSAY VALUE": "100 to 1000 pM"
  }
]

Note down IC50 recorded for R.1H3 (antibody, human IgG1, kappa, V domains shown, Chimeric: rabbit variable domains, human IgG1 and human kappa constant regions) VH: QSLEESGGDLVKPGASLTLTCTASGFSFSSGYYMCWVRQAPGKGLEWIACIYMRSGDTYLASWAKGQFTISKTSSTTVTLQMTSLTAADTATYFCGRGGTSYALNLWGQGTLVTVSS VL: DVVMTQTPASVSEPVGGTVTINCQASQSISNECSWYQQKPGQPPKLLIYRASTLESGVPSRFSGSGSGTEFTLTISDLESADAATYYCQSTYYGTTGNTFGGGTEVVVKR 100 to 1000 pM
